- System: Fusarium graminearum
- experimental details: Antifungal activity against Fusarium graminearum assessed as inhibition rate at 50 ug/mL
- Type: functional
# binning rule on inhibition at 50 µg/mL: group A: < 50%; group B: ≥ 50% and < 60%; group C: ≥ 60%

Band for `CO/N=C(/C(=O)OC)c1ccccc1CSc1nnc(CSc2nc3nc(C)cc(C)n3n2)o1` ?
group A

Band for `CO/C=C(/C(=O)OC)c1ccccc1CSc1nn2c(C)nnc2s1` ?
group B

Band for `CO/C=C(/C(=O)OC)c1ccccc1CSc1nnc(CSc2nc3nc(C)cc(C)n3n2)n1N` ?
group A

Band for `CO/C=C(/C(=O)OC)c1ccccc1CSc1nc2ccccc2[nH]1` ?
group B

Band for `CO/C=C(/C(=O)OC)c1ccccc1CSc1cc(=O)c2ccccc2s1` ?
group B

Band for `CO/C=C(/C(=O)OC)c1ccccc1CSc1nnc(-c2ccccc2)n1N` ?
group C

Band for `CO/N=C(/C(=O)OC)c1ccccc1COc1ccccc1C` ?
group B

Band for `CO/C=C(/C(=O)OC)c1ccccc1CSc1nc2ccccc2s1` ?
group C

Band for `CO/C=C(/C(=O)OC)c1ccccc1CSc1nnc(CSc2nc3nc(C)cc(C)n3n2)s1` ?
group A

Band for `CO/N=C(/C(=O)OC)c1ccccc1CSc1nc2ccccc2[nH]1` ?
group C

Band for `CO/C=C(/C(=O)OC)c1ccccc1CSc1nnc(CSc2nc3nc(C)cc(C)n3n2)n1-c1ccccc1` ?
group A

Band for `CO/C=C(/C(=O)OC)c1ccccc1CSc1nnc(N)s1` ?
group A

Band for `CO/C=C(/C(=O)OC)c1ccccc1CSc1nnc(CSc2nc3nc(C)cc(C)n3n2)o1` ?
group A

Band for `CO/C=C(/C(=O)OC)c1ccccc1CSc1nc2ccccc2o1` ?
group C

Band for `CO/N=C(/C(=O)OC)c1ccccc1CSc1nnc(CSc2nc3nc(C)cc(C)n3n2)s1` ?
group A

Band for `CO/C=C(/C(=O)OC)c1ccccc1CSc1nc(C)cc(C)n1` ?
group C

Band for `CO/N=C(/C(=O)OC)c1ccccc1CSc1nc2ccccc2s1` ?
group C

Band for CC(C)(C)C(=O)C(Oc1ccc(Cl)cc1)n1cncn1 (configuration not stated) ?
group C

Band for `CO/C=C(/C(=O)OC)c1ccccc1CSc1nc2nc(C)cc(C)n2n1` ?
group A

----------
Record form. Attribute: inhibition at 50 µg/mL. Fill in for each entry.
- System: Fusarium oxysporum
- experimental details: Antifungal activity against Fusarium oxysporum assessed as inhibition rate at 50 ug/mL
- Type: functional
Just the number in %, nothing appended.

Assign inhibition at 50 µg/mL to the following record: `CO/C=C(/C(=O)OC)c1ccccc1CSc1nn2c(C)nnc2s1`
59

Assign inhibition at 50 µg/mL to the following record: CC(C)(C)C(=O)C(Oc1ccc(Cl)cc1)n1cncn1 (configuration not stated)
86

Assign inhibition at 50 µg/mL to the following record: `CO/C=C(/C(=O)OC)c1ccccc1CSc1nnc(-c2ccccc2)n1N`
76

Assign inhibition at 50 µg/mL to the following record: `CO/N=C(/C(=O)OC)c1ccccc1CSc1nc2ccccc2[nH]1`
72

Assign inhibition at 50 µg/mL to the following record: `CO/C=C(/C(=O)OC)c1ccccc1CSc1cc(=O)c2ccccc2s1`
48

Assign inhibition at 50 µg/mL to the following record: `CO/N=C(/C(=O)OC)c1ccccc1COc1ccccc1C`
61

Assign inhibition at 50 µg/mL to the following record: `CO/C=C(/C(=O)OC)c1ccccc1CSc1nnc(CSc2nc3nc(C)cc(C)n3n2)o1`
36

Assign inhibition at 50 µg/mL to the following record: `CO/N=C(/C(=O)OC)c1ccccc1CSc1nc2nc(C)cc(C)n2n1`
50

Assign inhibition at 50 µg/mL to the following record: `CO/C=C(/C(=O)OC)c1ccccc1CSc1nc2nc(C)cc(C)n2n1`
61

Assign inhibition at 50 µg/mL to the following record: `CO/C=C(/C(=O)OC)c1ccccc1CSc1nc2ccccc2[nH]1`
45

Assign inhibition at 50 µg/mL to the following record: `CO/C=C(/C(=O)OC)c1ccccc1CSc1nnc(CSc2nc3nc(C)cc(C)n3n2)s1`
61

Assign inhibition at 50 µg/mL to the following record: `CO/C=C(/C(=O)OC)c1ccccc1CSc1nc(C)cc(C)n1`
79

Assign inhibition at 50 µg/mL to the following record: `CO/N=C(/C(=O)OC)c1ccccc1CSc1cc(=O)c2ccccc2s1`
44

Assign inhibition at 50 µg/mL to the following record: `CO/N=C(/C(=O)OC)c1ccccc1CSc1nc2ccccc2s1`
74

Assign inhibition at 50 µg/mL to the following record: `CO/C=C(/C(=O)OC)c1ccccc1CSc1nnc(CSc2nc3nc(C)cc(C)n3n2)n1N`
44

Assign inhibition at 50 µg/mL to the following record: `CO/C=C(/C(=O)OC)c1ccccc1CSc1nc2ccccc2s1`
69

Assign inhibition at 50 µg/mL to the following record: `CO/N=C(/C(=O)OC)c1ccccc1CSc1nc(C)cc(C)n1`
76

Assign inhibition at 50 µg/mL to the following record: `CO/C=C(/C(=O)OC)c1ccccc1CSc1nc2ccccc2o1`
69

Assign inhibition at 50 µg/mL to the following record: `CO/N=C(/C(=O)OC)c1ccccc1CSc1nnc(CSc2nc3nc(C)cc(C)n3n2)s1`
54

Assign inhibition at 50 µg/mL to the following record: `CO/N=C(/C(=O)OC)c1ccccc1CSc1nnc(CSc2nc3nc(C)cc(C)n3n2)o1`
63

Assign inhibition at 50 µg/mL to the following record: `CO/C=C(/C(=O)OC)c1ccccc1CSc1nnc(N)s1`
65

Assign inhibition at 50 µg/mL to the following record: `CO/C=C(/C(=O)OC)c1ccccc1CSc1nnc(CSc2nc3nc(C)cc(C)n3n2)n1-c1ccccc1`
40

----------
Record form. Attribute: inhibition at 50 µg/mL. Fill in for each entry.
- Tested on: Dothiorella gregaria
- experimental details: Antifungal activity against Dothiorella gregaria assessed as inhibition rate at 50 ug/mL
- Assay type: functional
Just the number in %, nothing appended.

Assign inhibition at 50 µg/mL to the following record: `CO/C=C(/C(=O)OC)c1ccccc1CSc1nc2ccccc2[nH]1`
87

Assign inhibition at 50 µg/mL to the following record: CC(C)(C)C(=O)C(Oc1ccc(Cl)cc1)n1cncn1 (stereo not given)
61

Assign inhibition at 50 µg/mL to the following record: `CO/C=C(/C(=O)OC)c1ccccc1CSc1nc2nc(C)cc(C)n2n1`
78

Assign inhibition at 50 µg/mL to the following record: `CO/C=C(/C(=O)OC)c1ccccc1CSc1nnc(N)s1`
55

Assign inhibition at 50 µg/mL to the following record: `CO/C=C(/C(=O)OC)c1ccccc1CSc1nnc(CSc2nc3nc(C)cc(C)n3n2)o1`
73

----------
Record form. Attribute: inhibition at 50 µg/mL. Fill in for each entry.
- Tested on: Colletotrichum gossypii
- experimental details: Antifungal activity against Colletotrichum gossypii assessed as inhibition rate at 50 ug/mL
- Type: functional
Just the number in %, nothing appended.

Assign inhibition at 50 µg/mL to the following record: `CO/C=C(/C(=O)OC)c1ccccc1CSc1cc(=O)c2ccccc2s1`
52

Assign inhibition at 50 µg/mL to the following record: CC(C)(C)C(=O)C(Oc1ccc(Cl)cc1)n1cncn1 (configuration not stated) [TRIADIMEFON]
95

Assign inhibition at 50 µg/mL to the following record: `CO/C=C(/C(=O)OC)c1ccccc1CSc1nc2ccccc2s1`
86

Assign inhibition at 50 µg/mL to the following record: CO/N=C(/C(=O)OC)c1ccccc1COc1ccccc1C [KRESOXIM-METHYL]
50

Assign inhibition at 50 µg/mL to the following record: `CO/C=C(/C(=O)OC)c1ccccc1CSc1nc(C)cc(C)n1`
52

Assign inhibition at 50 µg/mL to the following record: `CO/N=C(/C(=O)OC)c1ccccc1CSc1nc2nc(C)cc(C)n2n1`
35

Assign inhibition at 50 µg/mL to the following record: `CO/C=C(/C(=O)OC)c1ccccc1CSc1nc2ccccc2o1`
83

Assign inhibition at 50 µg/mL to the following record: `CO/C=C(/C(=O)OC)c1ccccc1CSc1nc2nc(C)cc(C)n2n1`
39

Assign inhibition at 50 µg/mL to the following record: `CO/C=C(/C(=O)OC)c1ccccc1CSc1nnc(CSc2nc3nc(C)cc(C)n3n2)n1-c1ccccc1`
17

Assign inhibition at 50 µg/mL to the following record: `CO/N=C(/C(=O)OC)c1ccccc1CSc1nnc(CSc2nc3nc(C)cc(C)n3n2)o1`
36

Assign inhibition at 50 µg/mL to the following record: `CO/C=C(/C(=O)OC)c1ccccc1CSc1nnc(N)s1`
39

Assign inhibition at 50 µg/mL to the following record: `CO/N=C(/C(=O)OC)c1ccccc1CSc1nc2ccccc2s1`
75

Assign inhibition at 50 µg/mL to the following record: `CO/N=C(/C(=O)OC)c1ccccc1CSc1nc(C)cc(C)n1`
59

Assign inhibition at 50 µg/mL to the following record: `CO/N=C(/C(=O)OC)c1ccccc1CSc1nc2ccccc2[nH]1`
82

Assign inhibition at 50 µg/mL to the following record: `CO/C=C(/C(=O)OC)c1ccccc1CSc1nnc(CSc2nc3nc(C)cc(C)n3n2)o1`
39

Assign inhibition at 50 µg/mL to the following record: `CO/C=C(/C(=O)OC)c1ccccc1CSc1nn2c(C)nnc2s1`
50

Assign inhibition at 50 µg/mL to the following record: `CO/C=C(/C(=O)OC)c1ccccc1CSc1nnc(-c2ccccc2)n1N`
64

Assign inhibition at 50 µg/mL to the following record: `CO/N=C(/C(=O)OC)c1ccccc1CSc1cc(=O)c2ccccc2s1`
48

Assign inhibition at 50 µg/mL to the following record: `CO/C=C(/C(=O)OC)c1ccccc1CSc1nnc(CSc2nc3nc(C)cc(C)n3n2)n1N`
35

Assign inhibition at 50 µg/mL to the following record: `CO/C=C(/C(=O)OC)c1ccccc1CSc1nc2ccccc2[nH]1`
52

Assign inhibition at 50 µg/mL to the following record: `CO/N=C(/C(=O)OC)c1ccccc1CSc1nnc(CSc2nc3nc(C)cc(C)n3n2)s1`
32

Assign inhibition at 50 µg/mL to the following record: `CO/C=C(/C(=O)OC)c1ccccc1CSc1nnc(CSc2nc3nc(C)cc(C)n3n2)s1`
39
